# Test Target: T1, His-S-MPP1 fusion protein (full-length MPP1) (UniProt Q00013 1-466)
# T1 construct: MPP1 (p55), full length, expressed from the pTriX vector; the fragments of the same protein are numbered up to amino acid 466; also called purified MPP1; source: E. coli, purified (nickel column); not shown: His tag, N-terminal, kept
# T1 sequence (looked up): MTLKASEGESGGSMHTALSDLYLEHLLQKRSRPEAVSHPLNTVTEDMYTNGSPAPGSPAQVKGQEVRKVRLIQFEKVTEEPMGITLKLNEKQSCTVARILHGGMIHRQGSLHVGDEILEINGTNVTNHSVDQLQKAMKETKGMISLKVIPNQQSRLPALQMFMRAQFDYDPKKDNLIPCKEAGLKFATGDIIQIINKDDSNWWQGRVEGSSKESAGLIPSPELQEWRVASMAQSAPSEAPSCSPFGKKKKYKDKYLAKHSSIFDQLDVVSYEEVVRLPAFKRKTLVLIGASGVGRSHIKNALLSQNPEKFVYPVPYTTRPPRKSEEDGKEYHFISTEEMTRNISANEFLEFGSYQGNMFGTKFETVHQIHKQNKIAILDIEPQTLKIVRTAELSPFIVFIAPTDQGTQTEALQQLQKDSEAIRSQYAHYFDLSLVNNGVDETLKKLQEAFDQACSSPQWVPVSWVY
# Experiment Description: pull-down; competition: TAT-ABCC4 peptides (1–4 μM) mixed with GST-ABCC4-C100 (50 nM) before addition of His-S-MPP1 (3.6 nM), 2 h at 24 °C; GST-ABCC4-C100 immobilized on glutathione beads, washed 3 times; immunoblot with rabbit anti-MPP1
# Settings: both partners purified
Experimental Endpoint: IC50

Exam item: Give its IC50 value. Item: YGRKKRRQRRRSNGQPSTLTIFETAL (cell penetrating HIV-TAT peptide; ABCC4, human, carboxyl-terminal 15 amino acids with the PDZ motif ETAL, free COOH; also called cell penetrating ABCC4-PDZ peptide; source: synthetic peptide)
Marked response: ~300 nM
